- measured.on: Coagulation factor X (Homo sapiens, UniProt P00742)
- Sequence (P00742 41-179 limits assumed): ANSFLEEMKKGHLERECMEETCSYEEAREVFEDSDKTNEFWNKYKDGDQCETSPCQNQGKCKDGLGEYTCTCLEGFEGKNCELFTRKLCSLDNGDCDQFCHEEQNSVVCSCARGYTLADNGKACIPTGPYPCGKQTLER
- Sequence (P00742 235-488 limits assumed): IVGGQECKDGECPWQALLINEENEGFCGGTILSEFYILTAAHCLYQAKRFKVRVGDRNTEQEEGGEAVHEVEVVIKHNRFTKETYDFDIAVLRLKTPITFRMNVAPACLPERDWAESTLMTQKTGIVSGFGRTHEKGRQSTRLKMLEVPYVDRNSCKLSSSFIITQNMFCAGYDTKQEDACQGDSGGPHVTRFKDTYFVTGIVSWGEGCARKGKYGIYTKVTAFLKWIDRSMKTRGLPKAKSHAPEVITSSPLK
assay.endpoint: pIC50
One number for each entry, as −log10 of the molar value.

Some compounds with known pIC50 results, for comparison:
substance.smiles | measured.on | assay.endpoint | endpoint.value
Cc1cc(C(=O)Nc2ccc(-c3ccccc3S(N)(=O)=O)cc2)n(-c2cc3ccccc3cc2C(=N)N)n1 | Coagulation factor X (Homo sapiens, UniProt P00742) | pIC50 | 7.68
Cc1cc(C(=O)Nc2ccc(-c3ccccc3S(N)(=O)=O)cc2)n(-c2cc3ccccc3cc2C#N)n1 | Coagulation factor X (Homo sapiens, UniProt P00742) | pIC50 | 8.22

For each listed entry, give its pIC50.
1. NS(=O)(=O)c1ccccc1-c1ccc(NC(=O)c2cc(C(F)(F)F)nn2-c2ccc3cc(Cl)ccc3c2)cc1
2. Cc1cc(C(=O)Nc2ccc(-c3ccccc3S(N)(=O)=O)cc2)n(-c2ccc3ccccc3c2)n1
3. Cc1cc(C(=O)Nc2ccc(-c3ccccc3S(N)(=O)=O)cc2)n(-c2cc3ccccc3cc2C(N)=O)n1
4. Cc1cc(C(=O)Nc2ccc(-c3ccccc3S(N)(=O)=O)cc2)n(-c2ccc3cc(Br)ccc3c2)n1

Result:
1: 8.40; 2: 6.98; 3: 7.62; 4: 7.74

---

- method.notes: Oral bioavailability in rat by oral dosing
- Assay type: ADME, organism-based
- test.conditions: in vivo
assay.endpoint: bioavailability (%)
Answers are plain numbers, in %.

Summary for this compound, Cc1cc(C(=O)Nc2ccc(-c3ccccc3S(N)(=O)=O)cc2)n(-c2ccc3ccccc3c2)n1 : bioavailability is 24.5

---

pIC50: −log10 of the molar value.
Reported pIC50, Plasminogen (Homo sapiens, UniProt P00747).

For each listed entry, give its pIC50.
1. Cc1cc(C(=O)Nc2ccc(-c3ccccc3S(N)(=O)=O)cc2)n(-c2cc3ccccc3cc2C2=NCCN2)n1
2. Cc1cc(C(=O)Nc2ccc(-c3ccccc3S(N)(=O)=O)cc2)n(-c2cc3ccccc3cc2F)n1
3. Cc1cc(C(=O)Nc2ccc(-c3ccccc3S(N)(=O)=O)cc2)n(-c2cc3ccccc3cc2S(C)(=O)=O)n1
4. Cc1cc(C(=O)Nc2ccc(-c3ccccc3S(N)(=O)=O)cc2)n(-c2ccc3ccccc3c2)n1

Result:
1. < 4.96
2. < 4.96
3. < 4.96
4. < 4.96

---

- method.notes: Tested for half life value after intravenous administration at dose of 0.2 mg/kg in rat
- Format: ADME, organism-based
- Design: dose 0.2 mg/kg, route intravenous
- test.conditions: in vivo
assay.endpoint: half-life (h)
Answers are plain numbers, in h.

Summary for this compound, Cc1cc(C(=O)Nc2ccc(-c3ccccc3S(N)(=O)=O)cc2)n(-c2cc3ccccc3cc2F)n1 : half-life is 1.7

---

- method.notes: Tested for percent bioavailability after oral administration to Sprague-Dawley rat at dosage of 4 mg/kg
- test.conditions: in vivo, read-out: Bioavailabiility
assay.endpoint: bioavailability
Form entry: enter the amount, then its unit.

Summary for this compound, Cc1cc(C(=O)Nc2ccc(-c3ccccc3S(N)(=O)=O)cc2)n(-c2cc3ccccc3cc2F)n1 : bioavailability is 22%

---

Reported IC50, Serine protease 1 (Homo sapiens, UniProt P07477).

Some compounds with known IC50 results, for comparison:
substance.smiles | measured.on | IC50
Cc1cc(C(=O)Nc2ccc(-c3ccccc3S(N)(=O)=O)cc2)n(-c2ccc3cc(O)ccc3c2)n1 | Serine protease 1 (Homo sapiens, UniProt P07477) | > 11 µM
Cc1cc(C(=O)Nc2ccc(-c3ccccc3S(N)(=O)=O)cc2)n(-c2ccc3cc(Cl)ccc3c2)n1 | Serine protease 1 (Homo sapiens, UniProt P07477) | > 11 µM
Cc1cc(C(=O)Nc2ccc(-c3ccccc3S(N)(=O)=O)cc2)n(-c2ccc3ccccc3c2)n1 | Serine protease 1 (Homo sapiens, UniProt P07477) | > 11 µM
Cc1cc(C(=O)Nc2ccc(-c3ccccc3S(N)(=O)=O)cc2)n(-c2cc3ccccc3cc2S(C)(=O)=O)n1 | Serine protease 1 (Homo sapiens, UniProt P07477) | > 11 µM

Query compound follows.
Summary for this compound, Cc1cc(C(=O)Nc2ccc(-c3ccccc3S(N)(=O)=O)cc2)n(-c2cc3ccccc3cc2CN)n1 : IC50 is > 11 µM
